Just for reference, the nanobody polyreactivity screen of Harvey et al. (2022) is where these values come from.

- Experiment: yeast display, Sf9 membrane polyspecificity reagent, FACS + sequencing; frameworks hold sequencing errors
Measured parameter: polyreactivity (PSR sort gate)

Some entries whose results are on file:
QVQLVESGGGLVQAGGSLRLSCAASGGTFYYYAMGWYRQAPGKERELVAAINVSGGNTYYADSVKGRFTISRDNAKNTVYLQMNSLKPEDTAVYYCAADPGARYYYWGQGTQVTVSS :: low polyreactivity
QVQLVESGGGLVQAGGSLRLSCAASGITFVRNAMGWYRQAPGKERELVAAISGRGGITYYADSVKGRFTISRDNAKNTVYLQMNSLKPEDTAVYYCAASSAGSSYNYWGQGTQVTVSS :: high polyreactivity
QVQLVESGGGLVQAGGSLRLSCAASGSIFDGYAMGWYTQAPGKERELVADINNGADTYYADSVKGRFTISRDNAKNTVYLQMYSLKPEDTAVYYCAARYGTDTDIQNVARYDYWGQGTQVTVSS :: low polyreactivity
QVQLVESGGGLVQAGGSLRLSCAASGRIFDLNAMGWYRQAPGKERELVAVITGSGGSTYYADSVKGRFTISRDNAKNTVYLQMNSLKPEDTAVYYCNAYTQQYRSYGYWGQGTQVTVSS :: low polyreactivity
QVQLVESGGGLVQAGGSLRLSCAASGSTFGIYAMRWYRQAPGKERELVAAISSRGSTYYADSVKGRFTISRDNAKNTVYLQMNSLKPEDTAVYYCAAKVWARVDGRQFRMVYWGQGTQVTVSS :: high polyreactivity
QVQIVESGGGLVQAGGSLRLTCAASGSIFGDYAMGWYRQASGKERELVASISESGGSTYYADSVKGRFTISRDNAKNTVYLQMISLKPEDTAVYYCNTDYDYGWWDLGEYEYWGHGTQVTVSS :: low polyreactivity

Continue with the sequence presented below.
Q: Check the records and state polyreactivity (PSR sort gate) for QVQLVESGGGLVQAGGSLRLSCAASGRTFYYYAMGWYRQAPGTERELLAAISWSVGRTYYADSVKGRFTISRDNAKNTVYLQMNSLKPEDTAVYFCNAEPPRGYTVSSGREMVYWGQGTQVTGSS
A: low polyreactivity
